Test system: CEM cells HIV-1 protection, formazan growth assay
ASSAY_INFO: NCI AIDS Antiviral Assay
EXPERIMENTAL_SETUP: measured here: growth of uninfected CEM cells
VALUE_TYPE: IC50

# annotated cases, reported IC50 shown
[[record]]
molecule = "COc1ccc(-c2nnc(-c3c(C)n(C)n(-c4ccccc4)c3=O)o2)cc1"
value_reported = "> 200 µM"

[[record]]
molecule = "O=C1/C(=C/c2cccc([N+](=O)[O-])c2)Cc2ccccc21"
value_reported = "> 200 µM"

[[record]]
molecule = "CCOC(=O)C1(C(=O)OCC)C[C@]23OCCC(=O)[C@H]2[C@H]2C(=O)OC(C)(C)O[C@]23C1"
value_reported = "> 200 µM"

[[record]]
molecule = "COC(=O)C1=C(C(=O)OC)C2(C)Nc3ccccc3C2=C(c2ccccc2)C1 (stereo unspecified)"
value_reported = "> 19.1 µM"

[[record]]
molecule = "COc1ccc2cc1Oc1cc3c(cc1OC)CC[N+](C)(C)C3Cc1ccc(cc1)Oc1c(OC)c(OC)cc3c1C(C2)[N+](C)(C)CC3 (stereo unspecified)"
value_reported = "> 200 µM"


Using the record for O=C1CSC(=S)N1N1C(=O)CSC1=S , report its IC50.
> 200 µM

Source of measurements: PubChem BioAssay AID179
